- assayed system: 5-lipoxygenase (Homo sapiens)
- Construct: Human PMN's (5 x 10⁶ cells/0.5 mL) in pH 7.2 phosphate buffer; endogenous in cells; host or cells: human polymorphonuclear leukocytes (PMN)
- Sequence (P09917 1-674): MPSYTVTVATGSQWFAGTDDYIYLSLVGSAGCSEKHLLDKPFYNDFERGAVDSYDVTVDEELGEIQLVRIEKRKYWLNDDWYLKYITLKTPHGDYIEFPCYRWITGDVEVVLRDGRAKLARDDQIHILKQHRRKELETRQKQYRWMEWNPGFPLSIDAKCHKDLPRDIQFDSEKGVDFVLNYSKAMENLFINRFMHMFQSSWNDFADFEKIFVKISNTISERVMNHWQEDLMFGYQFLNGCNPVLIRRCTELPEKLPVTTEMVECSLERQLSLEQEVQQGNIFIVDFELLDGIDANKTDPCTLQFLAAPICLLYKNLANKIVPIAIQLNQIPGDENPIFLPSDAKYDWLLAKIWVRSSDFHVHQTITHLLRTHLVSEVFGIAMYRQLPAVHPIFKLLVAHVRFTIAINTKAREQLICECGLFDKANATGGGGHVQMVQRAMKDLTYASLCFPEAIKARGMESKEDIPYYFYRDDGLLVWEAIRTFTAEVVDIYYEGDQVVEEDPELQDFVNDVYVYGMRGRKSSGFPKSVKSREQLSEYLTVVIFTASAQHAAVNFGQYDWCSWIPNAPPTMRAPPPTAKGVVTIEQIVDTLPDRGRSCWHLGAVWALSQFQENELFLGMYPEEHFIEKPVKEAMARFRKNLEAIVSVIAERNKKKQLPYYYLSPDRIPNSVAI
- protocol: Inhibition of 5-lipoxygenase (5-HETE biosynthesis) in human polymorphonuclear leukocytes
- Format: cell-based
- condition set: human PMN's, 5-HETE band vs control; test concentration 1 microM; read-out: Inhibition of 5-LO % at 1 M
Assign class by inhibition at 1 µM: not lower than 70% means class 1; lower than 70% means class 0.

Consider the worked cases shown below.
1. CC(C)c1cc(C=Cc2cccc(C(F)(F)F)c2)cc(C(C)C)c1O ... class 0
2. Cc1cc(C=Cc2ccccn2)cc(C)c1O ... class 1
3. C=CCc1cc(C=Cc2cccnc2)cc(C)c1O ... class 0
4. CC(C)c1cc(C=Cc2cccs2)cc(C(C)C)c1O ... class 1
5. Cc1ccc(C=Cc2cc(C)c(O)c(C)c2)s1 ... class 0

Read the next record carefully.
Query block: Check this compound for inhibition at 1 µM at or above 70%: `Cc1cc(C=Cc2cccs2)cc(F)c1O`
Result block: class 0
